target entity: Hypoxia-inducible factor 1-alpha (Homo sapiens, UniProt Q16665)
Sequence (Q16665 whole entry): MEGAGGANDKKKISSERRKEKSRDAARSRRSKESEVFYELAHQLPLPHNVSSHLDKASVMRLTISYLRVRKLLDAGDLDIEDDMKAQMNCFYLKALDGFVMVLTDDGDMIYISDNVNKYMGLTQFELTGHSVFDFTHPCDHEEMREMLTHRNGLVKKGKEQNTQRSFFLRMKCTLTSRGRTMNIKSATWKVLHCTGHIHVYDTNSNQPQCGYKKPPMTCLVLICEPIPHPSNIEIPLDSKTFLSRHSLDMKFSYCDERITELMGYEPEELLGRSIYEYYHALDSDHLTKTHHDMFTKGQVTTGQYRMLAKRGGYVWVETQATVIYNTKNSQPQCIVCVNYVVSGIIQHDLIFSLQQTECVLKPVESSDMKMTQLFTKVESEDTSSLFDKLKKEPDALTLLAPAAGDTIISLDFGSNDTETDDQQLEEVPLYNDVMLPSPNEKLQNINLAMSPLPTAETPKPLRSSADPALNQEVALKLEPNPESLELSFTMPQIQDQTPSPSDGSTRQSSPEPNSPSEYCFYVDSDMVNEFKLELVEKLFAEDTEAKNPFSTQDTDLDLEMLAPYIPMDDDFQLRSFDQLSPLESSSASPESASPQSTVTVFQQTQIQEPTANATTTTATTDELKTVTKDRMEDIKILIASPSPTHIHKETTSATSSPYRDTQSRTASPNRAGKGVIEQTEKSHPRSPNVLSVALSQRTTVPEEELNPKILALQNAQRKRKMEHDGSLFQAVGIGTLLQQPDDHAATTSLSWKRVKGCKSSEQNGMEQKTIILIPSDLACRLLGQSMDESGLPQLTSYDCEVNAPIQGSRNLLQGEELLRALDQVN
assay method text: Activation of HIF1 in human T47D cells
Format: cell-based
measurement name: pIC50
The read-out pIC50 is expressed as -log10 of concentration in moles per litre.

[Q] Report pIC50 for COc1ccc([C@@H](O)[C@@H](C)Oc2ccc([C@H]3O[C@H](c4ccc(OC)c(OC)c4)[C@H](C)[C@H]3C)cc2OC)cc1OC
[A] 7.70

// provenance: ChEMBL document CHEMBL4342441
